Listing: IC50 of selected compounds
biological target: Mitogen-activated protein kinase 8 (Homo sapiens, UniProt P45983); test: Inhibition of JNK1
Sequence (P45983 whole entry): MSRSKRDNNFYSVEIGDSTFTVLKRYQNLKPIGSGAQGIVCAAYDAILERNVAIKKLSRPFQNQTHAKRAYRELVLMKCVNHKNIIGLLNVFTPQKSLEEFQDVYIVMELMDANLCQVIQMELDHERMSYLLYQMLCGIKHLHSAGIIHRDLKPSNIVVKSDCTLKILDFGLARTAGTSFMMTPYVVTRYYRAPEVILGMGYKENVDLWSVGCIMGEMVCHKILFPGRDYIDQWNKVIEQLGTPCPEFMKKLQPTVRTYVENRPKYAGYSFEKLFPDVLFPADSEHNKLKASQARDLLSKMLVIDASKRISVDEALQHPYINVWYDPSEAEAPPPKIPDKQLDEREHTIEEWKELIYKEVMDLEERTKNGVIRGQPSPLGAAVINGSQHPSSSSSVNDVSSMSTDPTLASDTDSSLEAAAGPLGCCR

The following compounds have reported results that may help.
Smiles representation: NC(=O)c1ccc(Oc2ccc(/C=C3\SC(=S)N(c4ccc(OCCCN5CCCC5)cc4)C3=O)cc2)cc1
IC50: > 30 µM
//
Smiles representation: CN1CCN(CCCOc2ccc(N3C(=O)/C(=C/c4ccc(Oc5ccc(C(N)=O)cc5)cc4)SC3=S)cc2)CC1
IC50: > 30 µM

// below: IC50 requested for another compound
Look up IC50 for this compound: CN1CCN(CCCOc2ccc(N3C(=O)/C(=C/c4ccc(Oc5cccc(C(N)=O)c5)cc4)SC3=S)cc2)CC1
> 30 µM
